Where do these numbers come from? They come from ChEMBL document CHEMBL3885881.

List of TOTAL BILIRUBIN values.
- Organism: Rattus norvegicus
- measurement.protocol: DrugMatrix - Regimen: Daily Repeat
- Assay type: toxicity, organism-based, Sprague-Dawley
- Design: regimen Daily Repeat, gender Male, age 6-8 weeks
- test.settings: in vivo, po, 0 mg/kg, 120 h, tissue Plasma, route oral GAVAGE, dose level Control, time 5 day, […]
measured.endpoint: TOTAL BILIRUBIN (mg/dL)

{"molecule": "Cc1cccc(C)c1NC(=O)C(C)N (centres undefined) [TOCAINIDE]", "measured.endpoint": "TOTAL BILIRUBIN", "value": 0.2}
{"molecule": "Oc1ncnc2[nH]ncc12 [ALLOPURINOL]", "measured.endpoint": "TOTAL BILIRUBIN", "value": 0.22}
{"molecule": "COC(=O)Nc1nc2ccc(C(=O)c3ccccc3)cc2[nH]1 [MEBENDAZOLE]", "measured.endpoint": "TOTAL BILIRUBIN", "value": 0.17}
{"molecule": "CCC(C)(C)C(=O)O[C@H]1C[C@@H](C)C=C2C=C[C@H](C)[C@H](CC[C@@H]3C[C@@H](O)CC(=O)O3)[C@H]21 [SIMVASTATIN]", "measured.endpoint": "TOTAL BILIRUBIN", "value": 0.1}

###

- Species on record: Rattus norvegicus
- measurement.protocol: DrugMatrix - Regimen: Daily Repeat
- Assay type: toxicity, organism-based, Sprague-Dawley
- Parameters: regimen Daily Repeat, gender Male, age 6-8 weeks
- test.settings: in vivo, po, 0 mg/kg, 72 h, tissue Plasma, route oral GAVAGE, dose level Control, time 3 day, […]
List of PHOSPHORUS values.

{"compound": "O=C(Nc1ccc(Cl)c(Cl)c1)c1cc(Cl)cc(Cl)c1O [3,3',4',5-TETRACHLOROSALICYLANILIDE]", "PHOSPHORUS [mg/dL]": 11.73}
{"compound": "CC#C[C@]1(O)CC[C@H]2[C@@H]3CCC4=CC(=O)CCC4=C3[C@@H](c3ccc(N(C)C)cc3)C[C@@]21C", "PHOSPHORUS [mg/dL]": 10.07}
{"compound": "CO[C@H]1O[C@@H]2O[C@@]3(C)CC[C@H]4[C@H](C)CC[C@@H]([C@H]1C)[C@@]24OO3", "PHOSPHORUS [mg/dL]": 10.77}
{"compound": "CCOC(=O)C1=C(C)NC(C)=C(C(=O)OCC)C1c1ccccc1/C=C/C(=O)OC(C)(C)C", "PHOSPHORUS [mg/dL]": 10.33}

###

- Species: Rattus norvegicus
- measurement.protocol: DrugMatrix - Regimen: Daily Repeat
- Assay type: toxicity, organism-based, Sprague-Dawley
- Design: regimen Daily Repeat, gender Male, age 6-8 weeks
- test.settings: in vivo, po, 0 mg/kg, 120 h, tissue Plasma, route oral GAVAGE, dose level Control, time 5 day, vehicle .5 % CMC
List of ALBUMIN values.

{"compound": "COc1ccc(Cl)cc1C(=O)NCCc1ccc(S(=O)(=O)NC(=O)NC2CCCCC2)cc1 [GLYBURIDE]", "ALBUMIN [G/DL]": 3.82}
{"compound": "Cc1cc2c(s1)Nc1ccccc1N=C2N1CCN(C)CC1 [OLANZAPINE]", "ALBUMIN [G/DL]": 4.27}
{"compound": "NC(=O)NC(=O)Cc1ccccc1 [PHENACEMIDE]", "ALBUMIN [G/DL]": 4.2}
{"compound": "CCN1CCCC1CNC(=O)c1cc(S(N)(=O)=O)ccc1OC (stereo not drawn) [SULPIRIDE]", "ALBUMIN [G/DL]": 4.22}
{"compound": "CC(C)NCC(O)COc1ccc(CC(N)=O)cc1 (stereo not drawn) [ATENOLOL]", "ALBUMIN [G/DL]": 3.75}
{"compound": "Nc1ccc(C(=O)O)c(O)c1 [AMINOSALICYLIC ACID]", "ALBUMIN [G/DL]": 3.82}
{"compound": "COc1cc(/C=C/C(=O)O)ccc1O [FERULATE]", "ALBUMIN [G/DL]": 4.22}
{"compound": "CCOc1cc(N)c(Cl)cc1C(=O)NCC1CN(Cc2ccc(F)cc2)CCO1 (stereo not drawn) [MOSAPRIDE]", "ALBUMIN [G/DL]": 4.2}
{"compound": "COc1cc(NC(C)CCCN)c2ncccc2c1 (stereo not drawn) [PRIMAQUINE]", "ALBUMIN [G/DL]": 4.02}
{"compound": "NC(=O)CN1CCCC1=O", "ALBUMIN [G/DL]": 4.27}
{"compound": "CCN1CCN(c2cc3c(cc2F)c(=O)c(C(=O)O)cn3C2CC2)CC1 [ENROFLOXACIN]", "ALBUMIN [G/DL]": 3.72}
{"compound": "CC(C)(C#N)c1cc(Cn2cncn2)cc(C(C)(C)C#N)c1 [ANASTROZOLE]", "ALBUMIN [G/DL]": 4.27}
{"compound": "CN(C)CCC=C1c2ccccc2COc2ccccc21 [DOXEPIN]", "ALBUMIN [G/DL]": 3.75}
